This collection of values is drawn from patent US11952365B2.

target: 3CLpro (Severe acute respiratory syndrome coronavirus 2, UniProt P0DTD1); assay: SARS-CoV-2 3CLpro protease assay (duplex, SAMDI-MS); type: biochemical; set-up: For the duplex assay, 3CLpro and HRV3C was added; conditions: 3CLpro, 30 mins preincubation, class symbols; read-out: SARS-Cov-2 IC50
pIC50: −log10 of the molar value.
Measured Metric: pIC50

> print(dat)
                                 smiles.str  measured.metric    data.value
1  O=C(NC1CC1)C(=O)[C@H](C[C@@H]1CCNC1=O)NC(=O)[C@@H]1CC2(CCN1C(=O)c1cc3c(C(F)(F)F)cccc3[nH]1)CC2            pIC50  6.70 to 7.70
2  COc1cccc2[nH]c(C(=O)N3C[C@H](C(F)(F)F)C[C@H]3C(=O)N[C@@H](C[C@@H]3CCCNC3=O)C(=O)CO)cc12            pIC50  6.70 to 7.70
3  COc1cccc2[nH]c(C(=O)N3C[C@@H]4CCC[C@@H]4[C@H]3C(=O)N[C@@H](CN3CCCNC3=O)C(=O)C(=O)NC3CC3)cc12            pIC50  4.70 to 5.70
4  O=C1NCC[C@H]1C[C@H](NC(=O)[C@@H]1[C@H]2CCC[C@H]2CN1C(=O)c1cc2c(OCc3ccccc3)cccc2[nH]1)C(=O)CO            pIC50        > 7.70
5  COc1cccc2[nH]c(C(=O)N3C[C@H](c4ccccc4)C[C@H]3C(=O)N[C@@H](C[C@@H]3CCNC3=O)C(=O)CO)cc12            pIC50  6.70 to 7.70
6  COc1cccc2[nH]c(C(=O)N3CCc4ccccc4[C@H]3C(=O)N[C@@H](C[C@@H]3CCNC3=O)C(=O)CO)cc12            pIC50  5.70 to 6.70
